target: fl-HDAC4 (wild-type) (Homo sapiens); construct: Full-length (fl) [A.A. 1-1082] recombinant human histone deacetylase 4 (rhHDAC4) protein; FLAG (N); GST (given as 'with or without'); made in house; host or cells: HEK293-T; assay: SPR binding analysis TasQ / fl-HDAC4; conditions: fl-HDAC4 in solution, immobilized amine-linked TasQ, Zn2+; read-out: KD from the steady state dose-response curve
Sequence (P56524 whole entry): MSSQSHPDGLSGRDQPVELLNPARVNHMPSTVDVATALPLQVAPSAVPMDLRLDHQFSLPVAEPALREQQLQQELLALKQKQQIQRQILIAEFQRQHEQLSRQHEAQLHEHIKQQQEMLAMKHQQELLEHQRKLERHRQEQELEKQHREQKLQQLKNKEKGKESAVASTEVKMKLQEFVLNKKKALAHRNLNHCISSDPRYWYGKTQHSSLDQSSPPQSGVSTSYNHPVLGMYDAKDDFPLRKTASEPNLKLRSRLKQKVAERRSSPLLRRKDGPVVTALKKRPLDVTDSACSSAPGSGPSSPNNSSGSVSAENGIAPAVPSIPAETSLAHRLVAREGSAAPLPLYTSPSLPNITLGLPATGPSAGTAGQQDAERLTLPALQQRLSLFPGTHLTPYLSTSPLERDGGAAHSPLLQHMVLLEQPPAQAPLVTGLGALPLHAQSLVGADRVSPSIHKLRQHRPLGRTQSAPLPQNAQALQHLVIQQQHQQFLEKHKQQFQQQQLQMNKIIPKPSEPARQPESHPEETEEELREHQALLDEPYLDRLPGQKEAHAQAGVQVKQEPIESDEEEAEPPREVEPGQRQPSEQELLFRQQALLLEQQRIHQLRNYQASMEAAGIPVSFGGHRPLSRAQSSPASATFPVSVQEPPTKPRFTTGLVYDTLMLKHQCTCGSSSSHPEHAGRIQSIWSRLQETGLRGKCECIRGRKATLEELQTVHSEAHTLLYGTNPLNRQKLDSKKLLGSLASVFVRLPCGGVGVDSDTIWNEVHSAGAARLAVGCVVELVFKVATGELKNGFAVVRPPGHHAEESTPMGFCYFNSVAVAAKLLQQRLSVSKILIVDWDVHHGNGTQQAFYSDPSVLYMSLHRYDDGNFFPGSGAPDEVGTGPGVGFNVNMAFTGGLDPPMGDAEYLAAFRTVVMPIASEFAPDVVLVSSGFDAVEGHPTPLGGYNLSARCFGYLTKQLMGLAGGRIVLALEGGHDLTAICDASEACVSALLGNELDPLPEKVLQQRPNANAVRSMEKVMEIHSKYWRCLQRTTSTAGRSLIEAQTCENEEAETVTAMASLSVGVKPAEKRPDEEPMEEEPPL
Recorded metric: Kd

Asked: Fill in: Kd of COc1cccc2c1c(O)c(C(=O)N(C)c1ccc(C(F)(F)F)cc1)c(=O)n2C [TasQ, Tasquinimod] is ___
Given back: ~130 nM

---

biological target: Human Aryl Hydrocarbon Receptor (AHR) (Homo sapiens, UniProt P35869); construct: purchased Indigo Biosciences IB06001; assay: Human AHR reporter assay (cell-based  luciferase reporter gene assay); details: luciferase reporter gene assay; read-out: AHR agonist EC50
Sequence (P35869 11-848): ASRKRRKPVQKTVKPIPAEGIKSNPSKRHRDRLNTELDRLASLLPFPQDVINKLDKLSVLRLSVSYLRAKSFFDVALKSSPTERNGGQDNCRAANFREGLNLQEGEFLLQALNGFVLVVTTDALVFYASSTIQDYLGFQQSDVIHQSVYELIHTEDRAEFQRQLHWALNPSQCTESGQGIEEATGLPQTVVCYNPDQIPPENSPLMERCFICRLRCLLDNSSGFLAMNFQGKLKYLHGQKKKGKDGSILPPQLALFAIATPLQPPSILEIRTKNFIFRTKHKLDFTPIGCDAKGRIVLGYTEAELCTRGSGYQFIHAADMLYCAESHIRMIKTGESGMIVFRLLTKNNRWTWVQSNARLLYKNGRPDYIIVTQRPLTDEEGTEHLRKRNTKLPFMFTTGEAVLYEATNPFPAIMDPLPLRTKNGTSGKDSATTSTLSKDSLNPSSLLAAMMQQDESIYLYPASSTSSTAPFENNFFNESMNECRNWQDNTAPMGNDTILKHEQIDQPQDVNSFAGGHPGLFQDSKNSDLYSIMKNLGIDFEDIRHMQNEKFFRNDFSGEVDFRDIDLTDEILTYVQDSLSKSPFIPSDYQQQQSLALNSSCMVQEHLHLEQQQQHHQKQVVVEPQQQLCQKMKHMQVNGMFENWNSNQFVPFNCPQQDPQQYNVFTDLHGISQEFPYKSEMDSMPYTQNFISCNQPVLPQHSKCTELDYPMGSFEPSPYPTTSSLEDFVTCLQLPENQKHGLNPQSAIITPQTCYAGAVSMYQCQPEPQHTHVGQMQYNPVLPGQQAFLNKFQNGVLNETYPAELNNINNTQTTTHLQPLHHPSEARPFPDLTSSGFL
Recorded metric: pEC50
Keep it numeric: pEC50 is minus log10 of the concentration in mol/L.

Asked: Query the reported pEC50 for Human Aryl Hydrocarbon Receptor (AHR) (Homo sapiens, UniProt P35869); item: COc1cccc2c1c(O)c(C(=O)N(c1ccc(C(F)(F)F)cc1)C1CCCCC1)c(=O)n2C
Given back: 5.00

---

molecular target: Human Aryl Hydrocarbon Receptor (AHR) (Homo sapiens); construct: purchased Indigo Biosciences IB06001; experiment: Human AHR reporter assay (cell-based  luciferase reporter gene assay); conditions: n = 4 independent assays/analog; read-out: AHR Agonist Response [EC50] (nM +/−SD)
Reported EC50 values are given for each entry in this list.
Give your result in nM as a bare value.

Asked: Fill in: EC50 of COc1cccc2c1c(O)c(C(=O)N(CCOCc1ccccc1)c1ccc(C(F)(F)F)cc1)c(=O)n2C is ___
Given back: 1100

Asked: Now give it for COc1cccc2c1c(O)c(C(=O)Nc1ccc(C(F)(F)F)cc1)c(=O)n2C too.
Given back: 0.5

Asked: Now give it for COc1cccc2c1c(O)c(C(=O)N(c1ccccc1)C(C)C)c(=O)n2C too.
Given back: 850

Asked: Now give it for COc1cccc2c1c(O)c(C(=O)N(c1ccc(C(F)(F)F)cc1)C1CCCCC1)c(=O)n2C too.
Given back: 10200

Asked: Now give it for CCCCCCCN(C(=O)c1c(O)c2c(OC)cccc2n(C)c1=O)c1ccc(C(F)(F)F)cc1 too.
Given back: 50

Asked: Now give it for COc1cccc2c1c(O)c(C(=O)N(c1ccc(C(F)(F)F)cc1)C(C)C)c(=O)n2C too.
Given back: 1400

---

Reported EC50 values are given for each entry in this list.
target: Human Aryl Hydrocarbon Receptor (AHR) (Homo sapiens, UniProt P35869); construct: purchased Indigo Biosciences IB06001; experiment: Human AHR reporter assay (cell-based  luciferase reporter gene assay); details: n = 4 independent assays/analog; read-out: AHR Agonist Response [EC50] (nM +/−SD)

Compound: COc1cccc2c1CC(C(=O)N(C)c1ccc(C(F)(F)F)cc1)C(=O)N2C (stereo not shown) [ESATA-5]
Recorded metric: EC50
Value observed: 300 nM

Compound: COc1cccc2c1c(O)c(C(=O)N(c1ccccc1)C1CCCCC1)c(=O)n2C [ESATA-28]
Recorded metric: EC50
Value observed: 1300 nM

Asked: Fill in: EC50 of COc1cccc2c1c(O)c(C(=O)N/N=C/c1ccc(C(F)(F)F)cc1)c(=O)n2C [ESATA-24] is ___
Given back: 800 nM

Asked: Now give it for COc1cccc2c1c(OCCNC(=O)OC(C)(C)C)c(C(=O)N(c1ccc(C(F)(F)F)cc1)C1CCCCC1)c(=O)n2C [ESATA-26] too.
Given back: > 50000 nM

Asked: Now give it for COc1cccc2c1c(O)c(C(=O)N(c1ccc(C(F)(F)F)cc1)C1CCC(C(F)(F)F)CC1)c(=O)n2C (stereo not shown) [ESATA-22] too.
Given back: 12000 nM

Asked: Now give it for CCOc1c(C(=O)N(c2ccc(C(F)(F)F)cc2)C2CCCCC2)c(=O)n(C)c2cccc(OC)c12 [ESATA-25] too.
Given back: 10500 nM

Asked: Now give it for COc1cccc2c1c(O)c(C(=O)N(Cc1ccccc1)c1ccc(C(F)(F)F)cc1)c(=O)n2C [ESATA-18] too.
Given back: 10700 nM
